target_desc: T1, human PCSK9 (proprotein convertase subtilisin kexin type 9) (human, UniProt Q8NBP7 31-692)
T1 construct: Directly immobilized (SPR ProteOn), biotinylated (BLI), or in solution, depending on the assay; also called hPCSK9
protocol: BLI Octet Red, 37 C
quantity_kind: Kd (nM)

Here are 2 binders together with their reported answers.
binder: 2382B10 (designed binder, Anti-PCSK9 Adnectin, His6-tagged) MGVSDVPRDLEVVAATPTSLLISWDAPADAYGYYRITYGETGGNSPVQEFTVPSSKGTATISGLKPGVDYTITVYAVEYDFPGSGYYHRPISINYRTEIDKPSQHHHHHH
result_value: 2.35

binder: 2382E03 (designed binder, Anti-PCSK9 Adnectin, His6-tagged) MGVSDVPRDLEVVAATPTSLLISWDAPAGDGYGYYRITYGETGGNSPVQEFTVPVSKGTATISGLKPGVDYTITVYAVEFDFPGAGYYHRPISINYRTEIDKPSQHHHHHH
result_value: 2.94

(I) 2382C05 (designed binder, Anti-PCSK9 Adnectin, His6-tagged) MGVSDVPRDLEVVAATPTSLLISWDAPADGAYGYYRITYGETGGNSPVQEFTVPVSKGTATISGLKPGVDYTITVYAVEYSFPGAGYYHRPISINYRTEIDKPSQHHHHHH
(II) 2382E05 (designed binder, Anti-PCSK9 Adnectin, His6-tagged) MGVSDVPRDLEVVAATPTSLLISWDAPAEGGYGYYRITYGETGGNSPVQEFTVPVSKGTATISGLKPGVDYTITVYAVEFDFPGAGYYHRPISINYRTEIDKPSQHHHHHH
Ask | When their Kd values are compared, which is larger, I or II ? Identify your pick by its label.
Reply | I
